Test: AFM analysis of self-assembled peptide complexes
Assay type: physicochemical
Conditions: Table 12; self-assembled structure, 25 μM in distilled water
Non-standard residues stand in square brackets, D forms with d. No end group written: not given here. Aib = CC(C)(N)C(=O)O
measurement.type: AFM morphology

Some solved entries appear below for comparison.
substance: Example 38: peptide complex (Wαm-RGD), SEQ ID NO 38 (L[Aib]L[Aib]L[Aib]L[Aib]LGRGDRGDG)
AFM morphology: Vesicle
--
substance: RAUAUAUAUAUAUAUAUAUAUARGDRGDRGD [Example 64]
AFM morphology: Micelle
--
substance: AUAUAUAUAUAUAUA(PEG8)2 [Example 53]
AFM morphology: Micelle
--
substance: EEAUAUAUAUAUAUAUAUAUAUA(PEG8)2 [Example 91]
AFM morphology: Micelle
--
substance: RAUAUAUAUAUAUAUA(PEG8)2 [Example 59]
AFM morphology: Vesicle
--
substance: RGDRGDRGDAUAUAUAUAUAUAUAUAUAUAR [Example 71]
AFM morphology: Vesicle
--
substance: RRAUAUAUAUAUAUAUAUAUAUA(PEG8)2 [Example 61]
AFM morphology: Vesicle
--
substance: RAUAUAUAUAUAUAUAUAUAUAGRGDRGDRGDG [Example 66]
AFM morphology: Micelle

Req: Which value of AFM morphology has been reported for (PEG8)2 AUAUAUAUAUAUAUA [Example 56] in the records?
Resp: Micelle
